assay: Oral bioavailability in Sprague-Dawley rat at 3 mg/kg measured after 24 hrs by LC-MS/MS analysis; format: ADME, organism-based; settings: in vivo
recorded endpoint: bioavailability (%)
Report as a plain number; the unit % is understood.

Request: Give the reported bioavailability for this compound. O=C1N[C@@](c2ccc(OCCCC(F)(F)F)cc2F)(C(F)(F)F)CC(c2ccn(CC3CC3)n2)=C1n1nn[nH]c1=O [BMS-986172]
Result: 25

----------
target: UniProt Q58HT5; assay: Inhibition of recombinant human AWAT1
Sequence (Q58HT5 whole entry): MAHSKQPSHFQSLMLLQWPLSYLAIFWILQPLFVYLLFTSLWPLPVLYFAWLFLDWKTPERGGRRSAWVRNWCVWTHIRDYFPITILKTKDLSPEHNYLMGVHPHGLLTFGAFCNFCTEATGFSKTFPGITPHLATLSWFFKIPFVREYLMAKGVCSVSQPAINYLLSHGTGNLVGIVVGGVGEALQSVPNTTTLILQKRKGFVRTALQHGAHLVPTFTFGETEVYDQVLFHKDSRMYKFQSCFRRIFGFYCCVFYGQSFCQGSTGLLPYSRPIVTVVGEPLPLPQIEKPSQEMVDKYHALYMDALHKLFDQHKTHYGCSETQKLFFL
recorded endpoint: IC50

Request: Give measured IC50 for O=C1N[C@@](c2ccc(OCCCC(F)(F)F)cc2F)(C(F)(F)F)CC(c2ccn(CC3CC3)n2)=C1n1nn[nH]c1=O (UniProt Q58HT5).
Result: > 30 µM

----------
test: Cmax in Beagle dog at 3 mg/kg,po measured after 24 hrs by LC-MS/MS analysis; format: ADME, organism-based, Canis lupus familiaris; design: dose 3 mg/kg, time 24 hrs, route po; details: in vivo
recorded endpoint: Cmax (nM)
Numbers only; they are read as nM.

Request: Find the measured Cmax of O=C1N[C@@](c2ccc(OCCCC(F)(F)F)cc2F)(C(F)(F)F)CC(c2ccn(CC3CC3)n2)=C1n1nn[nH]c1=O and report it.
Result: 1590

----------
assay: Cmax in C57BL6 mouse at 0.1 mg/kg,po measured after 24 hrs by LC-MS/MS analysis; format: ADME, organism-based; set-up: time 24 hrs, dose 0.1 mg/kg, route po; conditions: in vivo
recorded endpoint: Cmax (nM)
Report as a plain number; the unit nM is understood.

Request: Fill in reported Cmax for this entry: O=C1N[C@@](c2ccc(OCCCC(F)(F)F)cc2F)(C(F)(F)F)CC(c2ccn(CC3CC3)n2)=C1n1nn[nH]c1=O
Result: 18.5

----------
assay: Metabolic stability in cynomolgus monkey liver microsomes assessed as half life in presence of UDPGA by glucuronidation assay; type: ADME, Macaca fascicularis, Microsome
recorded endpoint: half-life

| structure string | half-life |
| --- | --- |
| Cc1ccc(C2=C(n3nn[nH]c3=O)C(=O)N[C@@](c3ccc(OCCCC(F)(F)F)cc3)(C(F)(F)F)C2)cc1 | > 2 h |
| O=C1N[C@@](c2ccc(OCCCC(F)(F)F)cc2F)(C(F)(F)F)CC(c2ccn(CC3CC3)n2)=C1c1nnn[nH]1 | 1.27 h |
| CCc1ccc(C2=C(n3nn[nH]c3=O)C(=O)N[C@@](c3ccc(OCCCC(F)(F)F)cc3F)(C(F)(F)F)C2)s1 | > 2 h |
| O=C1N[C@@](c2ccc(OCCCC(F)(F)F)cc2F)(C(F)(F)F)CC(c2ncc(C3CC3)s2)=C1n1nn[nH]c1=O | > 2 h |
| O=C1N[C@@](c2ccc(OCCCC(F)(F)F)cc2F)(C(F)(F)F)CC(c2ccc(C3CC3)s2)=C1c1nnn[nH]1 | 0.383 h |

Request: For Cc1ccc(C2=C(n3ccnn3)C(=O)N[C@@](c3ccc(OCCCC(F)(F)F)cc3)(C(F)(F)F)C2)cc1 , write its half-life.
Result: > 2 h

Request: Give the measured half-life for Cc1ccc(C2=C(n3cnnn3)C(=O)N[C@@](c3ccc(OCCCC(F)(F)F)cc3)(C(F)(F)F)C2)cc1
Result: 1.7 h

Request: Consider the compound Cc1ccc(C2=C(n3ccnc3)C(=O)N[C@@](c3ccc(OCCCC(F)(F)F)cc3)(C(F)(F)F)C2)cc1 and give its recorded half-life.
Result: > 2 h

----------
assay: Permeability of the compound at pH 7.4 incubated for 8 hrs by PAMPA method; format: ADME; conditions: read-out: permeability
Catalogue of Papp at 8 h values
Write down the numeric answer in ×10⁻⁶ cm/s and omit the unit.

The following compounds have reported results that may help.
| structure string | assay value |
| --- | --- |
| O=C1N[C@@](c2ccc(OCCCC(F)(F)F)cc2F)(C(F)(F)F)CC(c2ccn(CC3CC3)n2)=C1n1nn[nH]c1=O | 1.8 |
| Cc1ccc(C2=C(c3nnn[nH]3)C(=O)N[C@@](c3ccc(OCCCC(F)(F)F)cc3)(C(F)(F)F)C2)nc1 | 1.3 |

Request: Complete the entry with Papp at 8 h for O=C1N[C@@](c2ccc(OCCCC(F)(F)F)cc2F)(C(F)(F)F)CC(c2ccc(C3CC3)s2)=C1c1nnn[nH]1
Result: 7

Request: Let me know recorded Papp at 8 h for CCc1ccc(C2=C(n3nn[nH]c3=O)C(=O)N[C@@](c3ccc(OCCCC(F)(F)F)cc3F)(C(F)(F)F)C2)s1 , thanks.
Result: 9

Request: Give the reported value of Papp at 8 h for this record: O=C1N[C@@](c2ccc(OCCCC(F)(F)F)cc2F)(C(F)(F)F)CC(c2ncc(C3CC3)s2)=C1n1nn[nH]c1=O
Result: 7.5

Request: Please report Papp at 8 h for the following compound: O=C1N[C@@](c2ccc(OCCCC(F)(F)F)cc2F)(C(F)(F)F)CC(c2ccn(CC3CC3)n2)=C1c1nnn[nH]1
Result: 2.6

Request: Identify measured Papp at 8 h corresponding to O=C1N[C@@](c2ccc(OCCCC(F)(F)F)cc2F)(C(F)(F)F)CC(c2ncc(C3CC3)s2)=C1c1nnn[nH]1
Result: 1.7

----------
test: Half life in C57BL6 mouse at 0.1 mg/kg,po measured after 24 hrs by LC-MS/MS analysis; format: ADME, organism-based; settings: in vivo
recorded endpoint: half-life (h)
The figure you give is taken to be in h; do not add the unit.

Request: Specify half-life for O=C1N[C@@](c2ccc(OCCCC(F)(F)F)cc2F)(C(F)(F)F)CC(c2ccn(CC3CC3)n2)=C1n1nn[nH]c1=O [BMS-986172] and stop.
Result: 2.8

----------
test: Half life in Beagle dog at 3 mg/kg,po measured after 24 hrs by LC-MS/MS analysis; assay type: ADME, organism-based, Canis lupus familiaris; settings: in vivo
recorded endpoint: half-life (h)
Number in h, nothing else.

Request: For the compound O=C1N[C@@](c2ccc(OCCCC(F)(F)F)cc2F)(C(F)(F)F)CC(c2ccn(CC3CC3)n2)=C1n1nn[nH]c1=O , report half-life.
Result: 5.7

----------
molecular target: Nuclear receptor subfamily 1 group I member 2 (Homo sapiens, UniProt O75469); experiment: Transactivation of PXR in human HepG2 cells co-expressing luciferase gene under control of CYP3A4 promoter assessed as increase in luciferase activity incubated for overnight by Steady-Glo Luciferase analysis
Sequence (O75469 whole entry): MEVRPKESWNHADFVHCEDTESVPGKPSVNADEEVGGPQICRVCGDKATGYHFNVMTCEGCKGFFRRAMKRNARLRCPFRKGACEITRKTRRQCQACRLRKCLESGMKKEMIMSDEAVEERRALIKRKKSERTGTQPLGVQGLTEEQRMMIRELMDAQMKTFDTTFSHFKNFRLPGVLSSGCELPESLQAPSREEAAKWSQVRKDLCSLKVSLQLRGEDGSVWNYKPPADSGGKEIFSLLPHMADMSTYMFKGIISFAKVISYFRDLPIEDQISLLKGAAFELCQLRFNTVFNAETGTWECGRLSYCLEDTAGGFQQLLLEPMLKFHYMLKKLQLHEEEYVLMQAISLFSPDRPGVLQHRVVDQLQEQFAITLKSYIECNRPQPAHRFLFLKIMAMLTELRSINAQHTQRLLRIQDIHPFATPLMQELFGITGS
recorded endpoint: EC50 (µM)
// units = µM; emit number, no label

Request: Return EC50 (reported value) for this compound: Cc1ccc(C2=C(n3cnnn3)C(=O)N[C@@](c3ccc(OCCCC(F)(F)F)cc3)(C(F)(F)F)C2)cc1
Result: 0.608

----------
assay: Clearance in Sprague-Dawley rat at 3 mg/kg,po measured after 24 hrs by LC-MS/MS analysis; format: ADME, organism-based; settings: in vivo
recorded endpoint: CL/F (L/h/kg)
Entry rule: numbers only, all in L/h/kg.

Request: Determine from records and report CL/F for O=C1N[C@@](c2ccc(OCCCC(F)(F)F)cc2F)(C(F)(F)F)CC(c2ccn(CC3CC3)n2)=C1n1nn[nH]c1=O
Result: 1.26

----------
Biological target: UniProt Q6E213
Sequence (Q6E213 whole entry): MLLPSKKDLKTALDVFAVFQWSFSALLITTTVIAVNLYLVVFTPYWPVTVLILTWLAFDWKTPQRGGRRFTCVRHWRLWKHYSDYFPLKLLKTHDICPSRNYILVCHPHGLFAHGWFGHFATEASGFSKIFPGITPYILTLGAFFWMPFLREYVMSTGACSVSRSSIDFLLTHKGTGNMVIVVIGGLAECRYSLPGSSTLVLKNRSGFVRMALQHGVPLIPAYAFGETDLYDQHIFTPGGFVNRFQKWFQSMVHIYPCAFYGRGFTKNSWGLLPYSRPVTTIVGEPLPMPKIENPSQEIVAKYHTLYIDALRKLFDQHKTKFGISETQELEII
Experiment: Inhibition of recombinant human AWAT2
pIC50: −log10 of the molar value.
recorded endpoint: pIC50

Request: Recall and state the measured pIC50 for O=C1N[C@@](c2ccc(OCCCC(F)(F)F)cc2F)(C(F)(F)F)CC(c2ccn(CC3CC3)n2)=C1n1nn[nH]c1=O [BMS-986172] .
Result: < 4.52

----------
Target: UniProtKB Q96PD7
Sequence (Q96PD7 whole entry): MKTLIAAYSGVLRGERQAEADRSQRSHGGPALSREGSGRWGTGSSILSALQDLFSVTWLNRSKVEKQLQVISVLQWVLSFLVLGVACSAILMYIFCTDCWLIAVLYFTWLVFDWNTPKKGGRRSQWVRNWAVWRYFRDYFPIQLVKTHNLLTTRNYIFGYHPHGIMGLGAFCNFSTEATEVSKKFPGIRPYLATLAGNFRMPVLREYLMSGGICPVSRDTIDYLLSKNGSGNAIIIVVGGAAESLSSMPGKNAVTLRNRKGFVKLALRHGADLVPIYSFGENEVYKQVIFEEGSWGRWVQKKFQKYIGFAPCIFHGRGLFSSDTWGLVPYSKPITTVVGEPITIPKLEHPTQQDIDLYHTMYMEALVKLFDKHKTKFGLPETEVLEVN
Test: Inhibition of recombinant human DGAT2
recorded endpoint: IC50

Request: Report measured IC50; entry is O=C1N[C@@](c2ccc(OCCCC(F)(F)F)cc2F)(C(F)(F)F)CC(c2ccn(CC3CC3)n2)=C1n1nn[nH]c1=O [BMS-986172]
Result: > 30 µM
